Target: T1, CRBN, Q96SW2;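 also: pooled lentiviral library of zinc finger degron-EGFP fusions in mCherry-positive Jurkat cells, FACS-sorted after compound exposure, with degron abundance counted by next-generation sequencing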
T1 chain: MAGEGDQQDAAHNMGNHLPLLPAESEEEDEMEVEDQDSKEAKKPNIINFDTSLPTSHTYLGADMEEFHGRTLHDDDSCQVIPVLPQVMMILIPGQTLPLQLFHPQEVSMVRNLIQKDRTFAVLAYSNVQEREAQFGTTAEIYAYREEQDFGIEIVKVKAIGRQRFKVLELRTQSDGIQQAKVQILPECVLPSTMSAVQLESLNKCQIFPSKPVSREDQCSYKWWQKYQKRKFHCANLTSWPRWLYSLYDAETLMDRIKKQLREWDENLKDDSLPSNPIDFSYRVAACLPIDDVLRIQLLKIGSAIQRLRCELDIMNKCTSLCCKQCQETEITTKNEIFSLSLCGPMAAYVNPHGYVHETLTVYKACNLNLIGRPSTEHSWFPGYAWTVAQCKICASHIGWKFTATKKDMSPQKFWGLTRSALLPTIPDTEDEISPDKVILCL
Assay: log2 fold change of degron read counts, EGFP-low vs EGFP+ sorted cells (limma voom), compound-induced degradation; higher = more compound-induced degradation of the degron-EGFP fusion; degrons are variants of IKZF1/3 zinc finger 2; compound dose not given here
Settings: Jurkat; 18 h; compound: compound 22 (5-morpholino-thalidomide)
Whole data set: some 8,300 sequences, median “log2 fold change of degron read counts, EGFP-low vs EGFP+ sorted cells (limma voom), compound-induced degradation” near -1.1, cut for the highest 2% near 3.2. This is one part of a sample in which the highest values are shown more often than they occur.
Classify by measured log2 fold change of degron read counts: satisfied if it is equal to or exceeds 2, not satisfied if it is smaller.

monomer.sequence | cat
FFCPICGACFTQKGNLLRHIKL [46F_47F_49P_50I_52G_53A_54C_55F_67L_, Q9UKT9] | satisfied
FKCEICGHHFTQKGNLLRHIKL [46F_47K_49E_50I_52G_53H_54H_55F_67L_, Q9UKT9] | not satisfied
FACPICGARFTQKGNLLRHIKL [46F_47A_49P_50I_52G_53A_54R_55F_67L_, Q9UKT9] | satisfied
FECPICGACFTQKGNLLRHIKL [46F_47E_49P_50I_52G_53A_54C_55F_67L_, Q9UKT9] | not satisfied
FDCPICGARFTQKGNLLRHIKL [46F_47D_49P_50I_52G_53A_54R_55F_67L_, Q9UKT9] | not satisfied
FFCPICGARFTQKGNLLRHIKL [46F_47F_49P_50I_52G_53A_54R_55F_67L_, Q9UKT9] | satisfied
FICPICGARFTQKGNLLRHIKL [46F_47I_49P_50I_52G_53A_54R_55F_67L_, Q9UKT9] | satisfied
FHCPICGACFTQKGNLLRHIKL [46F_47H_49P_50I_52G_53A_54C_55F_67L_, Q9UKT9] | satisfied
FMCPICGARFTQKGNLLRHIKL [46F_47M_49P_50I_52G_53A_54R_55F_67L_, Q9UKT9] | not satisfied
FCCDQCGAVFTQKGNLLRHIKL [46F_47C_49D_50Q_52G_53A_54V_55F_67L_, Q9UKT9] | not satisfied
